Sourced from the RNAGym collection of RNA variant scans (doi:10.1073/pnas.2313332121)

B1: TPR 5TU (parent)
chain: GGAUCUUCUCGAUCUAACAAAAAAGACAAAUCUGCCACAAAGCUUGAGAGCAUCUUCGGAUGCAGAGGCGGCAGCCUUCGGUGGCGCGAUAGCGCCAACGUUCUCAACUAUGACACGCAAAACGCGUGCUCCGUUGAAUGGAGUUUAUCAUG

- Variants of: B1
- run description: polymerase ribozyme fitness, log enrichment relative to wild type (log ratio); higher = more active; in vitro selection for triplet polymerase activity
This sample holds only a part of the variants without activity.
Label rule, in plain words: polymerase ribozyme fitness (log ratio) of -3 and up is yes (1), under -3 is no (0).

Examples with answers:
[[record]]
mutation_id = "C36A A66C"
classification = "no (0)"

[[record]]
mutation_id = "A24C C118U C125U"
classification = "no (0)"

[[record]]
mutation_id = "A12C A16G U55A"
classification = "yes (1)"

[[record]]
mutation_id = "A30U A40G G50C G67A C76A C85U A89C C132U"
classification = "no (0)"

[[record]]
mutation_id = "G86A C103G U134A"
classification = "no (0)"


Q. Could you please find out whether C72U A147U has polymerase ribozyme fitness (log ratio) that meets -3 or exceeds it?
A. yes (1)

Q. Could you please find out whether A3U U53A has polymerase ribozyme fitness (log ratio) that meets -3 or exceeds it?
A. yes (1)

Q. Could you please find out whether C10U C93A has polymerase ribozyme fitness (log ratio) that meets -3 or exceeds it?
A. no (0)

Q. Could you please find out whether A3C A16U C93G C118U U130G has polymerase ribozyme fitness (log ratio) that meets -3 or exceeds it?
A. no (0)

Q. Could you please find out whether A39C U130G has polymerase ribozyme fitness (log ratio) that meets -3 or exceeds it?
A. no (0)
